Test system: PPARg homodimer (NR concentration 180 nM)
experiment-summary: PBM binding z-score (relative to random genomic background probes); higher = stronger binding; sequences stand for … in GC…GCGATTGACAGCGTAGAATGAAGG
recorded-metric: PBM binding z-score

Please provide the recorded PBM binding z-score for TCTTGTAGATCAAGCAGGTTAAGAATGCCTGAGT , tested on PPARg homodimer (NR concentration 180 nM).
-0.335

Entry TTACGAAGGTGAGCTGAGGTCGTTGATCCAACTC please
0.215

Entry CATACAGGGTCAGCTCGGCCAGAGTAGGGACGGC please
0.989

Continuing:
Please provide the recorded PBM binding z-score for CGTCCAAGGTCAAAGGTCTGTGAAGAGATGACGG , tested on PPARg homodimer (NR concentration 180 nM).
3.15

Entry CCTTACGGGTCACTGACAGGTTAAAGCATTTGGA please
4.09

* * *

Test system: RARb homodimer (NR concentration 270 nM)
experiment-summary: PBM binding z-score (relative to random genomic background probes); higher = stronger binding; sequences stand for … in GC…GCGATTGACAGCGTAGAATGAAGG
Output: class label from PBM binding z-score. Mapping: Low = under 0.9, Mid = from 0.9 up to 3, High = 3 and over

Band for the recorded PBM binding z-score of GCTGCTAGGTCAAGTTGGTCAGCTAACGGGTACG ?
High

Entry CCTACTGGGCCAAAGGTCATCGATTCCAATGCTC please
High

Entry GTACCAAGTTGAATAGGTCGTTGATGAGTAGGCG please
Low

Entry CCTAGTTGATCAGGAGGTCACACACCGGATATGA please
High

Entry CGAGACAGGTGAGAAGGTAACTCAGCCTCGATTA please
Low

Continuing:
Band for the recorded PBM binding z-score of CCTACTGGGCCATCAGGTCAGTGATATCAACGTT ?
Mid

Entry ACTATTAGTTGACTTAGGGGAACCGATACGACGC please
Low

Entry ATAACAAGGTGATCGTGAGGTCGTTGATACTAAC please
Mid

Entry CGACCAAGGTCAATGCTAGGTCAGTGAAAGCATT please
High

Entry ATATGTAGGTTACATCCGGGTTATTCAGGCTATG please
Mid

Entry GAAACGAGGGCATTCGAGTTGATAGCATGGCGAT please
Low

Entry TCTGCCAGGTCAACGATGGTCAGCTAATCTGCTA please
High

Entry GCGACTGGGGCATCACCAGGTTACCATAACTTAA please
Mid

Entry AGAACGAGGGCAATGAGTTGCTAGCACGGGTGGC please
Mid

Entry CCTAGTTGGTCAGGAGGTAACACACCGGATATGA please
Mid

Entry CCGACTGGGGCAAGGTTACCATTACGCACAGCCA please
Mid

Entry ATCGAAAGGTCGTGAGGTGAGTAAACAGAAAGGC please
Mid

Entry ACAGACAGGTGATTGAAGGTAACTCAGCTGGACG please
Low

Entry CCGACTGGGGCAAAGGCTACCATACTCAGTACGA please
Low

* * *

We begin with a simple list: items and their reported PBM binding z-score.
Test system: RXRa DBDmut IVT, anti-RXR (DBD mutation: RXRa K156A/R161A, NR concentration 90 nM)
experiment-summary: PBM binding z-score (relative to random genomic background probes); higher = stronger binding; sequences stand for … in GC…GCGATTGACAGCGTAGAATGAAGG
Enter the number alone.

Please provide the recorded PBM binding z-score for ATTATTAGTTGACTTAGGGCAACCGATACGACGC , tested on RXRa DBDmut IVT, anti-RXR (DBD mutation: RXRa K156A/R161A, NR concentration 90 nM).
0.507

Entry ACTGACGGGTCAACGAGGTTATAGCACGCGTATA please
1.69

Entry GGAACGAGGGCAAGTTGGTAGCAGAGTTTGATGG please
2.05

Entry CCTTACGGGTCACTCCAGGTTATTGCATCGGAGT please
1.4

Entry ACTTTTAGTTGACTTAGGGCAACCGATACGACGC please
1.12

Entry TCTGCTAGGTCAGTTGGTCTGCTAACGAGCTGCC please
0.135

Entry TCTTGTAGATCAACCAGGTTAAGAAAGCCTGAGT please
0.718

Entry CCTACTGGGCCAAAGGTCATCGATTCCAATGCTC please
0.987

Entry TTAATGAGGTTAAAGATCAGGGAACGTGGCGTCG please
1.68

Entry CGTCCAAGGTCAAATGTCAGTGAAGAGATGACGG please
3.82

Continuing:
Please provide the recorded PBM binding z-score for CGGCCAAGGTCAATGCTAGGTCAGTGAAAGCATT , tested on RXRa DBDmut IVT, anti-RXR (DBD mutation: RXRa K156A/R161A, NR concentration 90 nM).
3.65

Entry TCTTGTAGATCAAGTAGGTTAAGAAAGCCTGAGT please
0.547

Entry AATACAGGGTCAGCGTAGGCCAGAGTACGCACAG please
1.69

Entry TCATATAGGTAAAAGGTAAAAGTCGGTGTGGTAA please
1.88

Entry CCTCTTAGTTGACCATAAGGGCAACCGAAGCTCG please
0.285

Entry CCTTACGGGTCATGGTTATAGCACGGGTGGTACG please
0.187

Entry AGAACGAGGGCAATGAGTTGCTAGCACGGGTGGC please
1.67

Entry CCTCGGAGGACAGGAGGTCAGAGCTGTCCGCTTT please
0.04

Entry TAGCCTAGGTCATGAGCCAGTATACCACGCGAAC please
0.516

Entry ATATGTAGGTTAGATGGGGTCATTCAGACTAGGC please
2.39

Entry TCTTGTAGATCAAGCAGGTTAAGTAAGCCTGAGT please
0.439

Entry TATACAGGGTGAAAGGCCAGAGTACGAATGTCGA please
-0.111

Entry CCTACTGAGCCAAAGGTCATTGATTCCAATGCTC please
2.32

Entry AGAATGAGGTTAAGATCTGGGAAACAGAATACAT please
1.04

Entry ACATGTAGGTTAAGGGTCATTCAGGTTGGTTCGC please
2.73

Entry CCTAATTGGTCAAGGTCACACACGCTATAGGTAC please
2.36

Entry ATCTCTAGGTAAAGATAGGTCAGTGAATGCAAAT please
0.189

Entry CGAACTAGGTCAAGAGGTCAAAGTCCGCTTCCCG please
2.69

Entry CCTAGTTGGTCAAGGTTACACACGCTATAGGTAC please
1.24

Entry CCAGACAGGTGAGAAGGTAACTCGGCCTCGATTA please
0.0522

Entry GCGACTGGGGCATCAGCAGGTCACCATAACTTAA please
-0.121

Entry TCTCGAAGGACACGAAGGTCAGAGCTTTCCAGAG please
0.817

Entry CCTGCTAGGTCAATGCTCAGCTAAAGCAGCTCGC please
1.92
